- testSystem: Cbl-B (Homo sapiens, UniProt Q13191)
- Construct: MSD-Based Assay for Degradation of Cbl-B in THP-1 Cells; endogenous in cells; host or cells: THP-1 (title) / Jurkat (protocol text)
- Sequence (Q13191 whole entry): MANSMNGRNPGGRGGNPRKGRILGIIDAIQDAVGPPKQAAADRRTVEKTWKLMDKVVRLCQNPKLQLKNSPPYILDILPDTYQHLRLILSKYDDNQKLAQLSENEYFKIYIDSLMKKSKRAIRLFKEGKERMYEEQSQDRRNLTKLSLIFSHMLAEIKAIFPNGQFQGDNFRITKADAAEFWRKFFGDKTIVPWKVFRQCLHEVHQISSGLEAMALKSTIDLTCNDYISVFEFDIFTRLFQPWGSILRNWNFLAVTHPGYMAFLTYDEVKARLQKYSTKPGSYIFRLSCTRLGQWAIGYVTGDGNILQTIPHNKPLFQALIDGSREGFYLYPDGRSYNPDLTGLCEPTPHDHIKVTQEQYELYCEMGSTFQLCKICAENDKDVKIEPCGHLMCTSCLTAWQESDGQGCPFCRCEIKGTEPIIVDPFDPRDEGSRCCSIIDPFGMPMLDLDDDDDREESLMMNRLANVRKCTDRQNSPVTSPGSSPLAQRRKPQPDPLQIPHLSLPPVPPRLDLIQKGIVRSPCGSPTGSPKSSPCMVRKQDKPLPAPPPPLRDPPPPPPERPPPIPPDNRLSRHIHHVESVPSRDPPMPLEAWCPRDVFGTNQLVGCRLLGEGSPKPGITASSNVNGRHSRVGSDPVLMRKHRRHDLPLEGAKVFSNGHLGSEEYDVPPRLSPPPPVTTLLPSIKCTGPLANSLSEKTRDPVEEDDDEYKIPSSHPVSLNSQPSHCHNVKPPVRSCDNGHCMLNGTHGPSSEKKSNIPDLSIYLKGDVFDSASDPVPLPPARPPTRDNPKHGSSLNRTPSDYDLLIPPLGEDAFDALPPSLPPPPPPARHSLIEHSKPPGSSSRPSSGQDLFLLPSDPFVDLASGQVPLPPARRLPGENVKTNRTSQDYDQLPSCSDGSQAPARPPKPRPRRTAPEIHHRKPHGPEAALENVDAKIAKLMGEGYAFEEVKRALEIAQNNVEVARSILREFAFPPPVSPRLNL
- assayInfo: MSD-based assay for degradation of Cbl-B in THP-1 cells
- Type: cell-based
- testSettings: Cbl-B degradation, Jurkat cells seeded (heading: THP-1 cells), 24 hours incubation, MSD readout
testReadout: DC50

compound | endpointResult
Cn1cnnc1[C@@H](c1cccc(-n2cc3c(C(F)(F)F)cc(CN4CCC(OCCOCc5ccc(COCCNc6cccc7c6C(=O)N(C6CCC(=O)NC6=O)C7=O)cc5)CC4)cn3c2=O)c1)C1CCC1 (single isomer, unassigned) [Compound 5] | > 10000 nM

Continue with the next compound.
Provide value of DC50 for this record tested with Cbl-B (Homo sapiens, UniProt Q13191): Cn1cnnc1CC1(c2cccc(-n3cc4c(C(F)(F)F)cc(CN5CCC[C@@H](OCCN6CCC(CN7CCN(c8ccc9c(c8)CN([C@@H]8CCC(=O)NC8=O)C9=O)CC7)CC6)C5)cn4c3=O)c2)COC1 (single isomer, unassigned) [Compound 49]
300 to 1000 nM
